Source: patent US20240084003A1

Molecular target: T1, human CD22, full length, on CHO-K1-human CD22 2C4 cells (human, UniProt P20273 20-847)
T1 construct: Full-length human CD22 (NCBI NP_001762.2) stably transfected into CHO-K1
T1 sequence: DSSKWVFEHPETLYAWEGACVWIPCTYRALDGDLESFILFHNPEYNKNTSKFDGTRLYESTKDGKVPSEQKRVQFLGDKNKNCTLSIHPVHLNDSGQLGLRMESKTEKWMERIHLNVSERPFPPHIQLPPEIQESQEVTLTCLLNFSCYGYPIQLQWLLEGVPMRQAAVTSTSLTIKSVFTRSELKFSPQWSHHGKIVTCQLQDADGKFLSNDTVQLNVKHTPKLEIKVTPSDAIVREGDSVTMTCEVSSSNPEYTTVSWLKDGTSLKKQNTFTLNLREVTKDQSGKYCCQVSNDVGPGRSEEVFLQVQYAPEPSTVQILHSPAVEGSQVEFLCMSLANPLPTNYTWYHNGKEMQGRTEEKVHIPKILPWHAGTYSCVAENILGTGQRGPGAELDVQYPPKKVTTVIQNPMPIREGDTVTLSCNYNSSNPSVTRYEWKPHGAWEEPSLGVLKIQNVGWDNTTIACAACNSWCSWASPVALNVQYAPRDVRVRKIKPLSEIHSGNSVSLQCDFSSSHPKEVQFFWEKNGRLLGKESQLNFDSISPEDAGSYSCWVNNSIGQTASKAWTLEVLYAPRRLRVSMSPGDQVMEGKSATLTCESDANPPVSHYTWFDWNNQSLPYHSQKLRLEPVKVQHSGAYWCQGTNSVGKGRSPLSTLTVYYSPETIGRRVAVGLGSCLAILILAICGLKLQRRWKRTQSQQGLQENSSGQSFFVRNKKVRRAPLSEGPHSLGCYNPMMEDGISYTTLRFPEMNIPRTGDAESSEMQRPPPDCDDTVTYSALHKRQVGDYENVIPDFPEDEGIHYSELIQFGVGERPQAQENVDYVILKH
Test: FACS, CHO-K1-human CD22 2C4 cells
# note: exactly 1000 pM is not below, so it is 0 (no); use 1 (yes) for EC50 strictly under it

BINDER | ANSWER_LABEL
F1.257.3 human-murine chimeric antibody (antibody, human IgG1, kappa, V domains shown, Chimeric, human IgG1 / kappa; VL tied by name) VH: QVQLQQSGPELARPGASVKLSCKASGYTFTSYGISWVKQRTGQDLEWIGEIYPKLGTTYYNEKFKDKATLTTDRSSSTAYMALRSLTSEDSAVYFCACPHYYATRGGDYWGQGTTLTVSS VL: EIVLTQSPATLSVTPGDSVTFSCRASQSISNHLHWYQQKSHESPRLLIRYASQSISGIPSRFSGSGSGTDFTLSLSSVETEDFGVYFCQQSHSWPYTFGGGTKLEIAR | 1 (yes)
F1.105.11 human-murine chimeric antibody (antibody, human IgG1, kappa, V domains shown, Chimeric, human IgG1 / kappa; VL tied by name) VH: EVQLQQSGPVLVKPGASVKMSCKASGYTFSDYFMNWVKQSHGKSLEWIGIINSYSGGTSYNQKFKGKATLTVDKSSSTAYMELNSLTSEDSAVYYCARWMDYWGQGTSVTVSS VL: DVQITQSPSYLAASPGETITINCRTSESISKHLAWYQEKPGKTNKLLIYSGSTLQSGIPSRFSGSGSGTDFTLTISSLEPEDFAMYYCQQHNEYPWTFGGGTKLEIKR | 0 (no)
F1.250.16 human-murine chimeric antibody (antibody, human IgG1, kappa, V domains shown, Chimeric, human IgG1 / kappa; VL tied by name) VH: QVQLQQSGAEQVKPGASVKMSCKASGYTFTTYPIEWMKQNHGESLDWIGNIHPYNDDTEYNEKFKGKATLTVEKSSNTVFLELSRLTSDDSAVYYCVRGDYYNSRYWYFDVWGTGTTVTVSS VL: DIVMTQSQKFMSTTVGDRVSITCKAGQNVRTAVAWYQQKPGQSPKLLIYSASTRYIGVPERFTGSGSGTDFTLTITNMQSEDLADYFCQQYSSFPLTFGTGTKLELKR | 1 (yes)

API: the following record is the query input.
Field: below-cutoff. Rule: recorded EC50 strictly less than 1000 pM. Subject: F1.161.7 human-murine chimeric antibody (antibody, human IgG1, kappa, V domains shown, Chimeric, human IgG1 / kappa) VH: QVQLQQPGAELVKPGASVKMSCKASGYTFTSYWISWVKQRPGQGLEWIGDIYPGTGSSNYNEKFKSKATLTVDTSSSTAYMQLSSLTSEDSAVYYCARLKFEGIGYWGQGTTLTVSS VL: QIVLTQSPAIMSASLGEEITLTCSASSSVSYMHWFQQKSGTSPKLLIYSISNLASGVPSRFSGSGSGTFYSLTISSVEAEDAADYYCHQWSSYPWTFGGGTKLEIKR
1 (yes)
